# Species: Rattus norvegicus
# assay-notes: DrugMatrix - Regimen: Daily Repeat
# Format: toxicity, organism-based, Sprague-Dawley
# Set-up: regimen Daily Repeat, gender Male, age 6-8 weeks
# recorded-conditions: in vivo, po, 1500 mg/kg, 72 h, tissue Blood, route oral GAVAGE, dose level High, time 3 day, vehicle .5 % CMC
observed-property: PLATELET COUNT (x10E3/uL)

molecule="C[C@@H](O)[C@H]1C(=O)N2C(C(=O)O)=C(S[C@@H]3CN[C@H](C(=O)N(C)C)C3)[C@H](C)[C@H]12 [MEROPENEM]" observed_property="PLATELET COUNT" experimental_value=1189
molecule="O=c1cc(-c2ccccc2)oc2ccc3ccccc3c12 [BETA-NAPHTHOFLAVONE]" observed_property="PLATELET COUNT" experimental_value=1171.33
molecule="CC(C)(Sc1cc(C(C)(C)C)c(O)c(C(C)(C)C)c1)Sc1cc(C(C)(C)C)c(O)c(C(C)(C)C)c1 [PROBUCOL]" observed_property="PLATELET COUNT" experimental_value=1374.67
molecule=CCOC(=O)[C@H](CCc1ccccc1)N[C@@H](C)C(=O)N1CCC[C@H]1C(=O)O observed_property="PLATELET COUNT" experimental_value=1237.33
molecule="Nc1nc2c(c(=O)[nH]1)N(C=O)C(CNc1ccc(C(=O)N[C@@H](CCC(=O)O)C(=O)O)cc1)CN2 (stereo not given in full) [LEUCOVORIN]" observed_property="PLATELET COUNT" experimental_value=1212
